The values you see were collected from patent US20250074955A1.

Reported pIC50 is given for each of the following binders.
experimental_target: HLA-DQ8 (human)
test: competition with radiolabeled probe peptide, purified MHC class II
pIC50: −log10 of the molar value.

[
  {
    "binder": "QPPFSEQQESPFSQQ [… (SEQ ID NO: 69)]",
    "pIC50": 5.94
  },
  {
    "binder": "GPPFSKQTEPVISQQ [… (SEQ ID NO: 186)]",
    "pIC50": 4.42
  },
  {
    "binder": "QPPSSEQQHSPPSQQ [… (SEQ ID NO: 81)]",
    "pIC50": 4.50
  },
  {
    "binder": "QQPFPEQQRSQFSQQ [… (SEQ ID NO: 85)]",
    "pIC50": 4.45
  }
]
